src = patent US20140289906A1

# assayRemarks: 14C assay: 14CO2 capture from [14C]-carboxyl-labeled dicamba with IPTG-induced recombinant E. coli cells
# particulars: IPTG-induced recombinant E. coli cells; 14CO2 from [14C]-carboxyl-labeled dicamba
readoutType: Dicamba Decarboxylase Activity

• 79 (protein, Pyrenophora teres) MATTTTPSTLIATLESHLTPTLAFTSPTTSPTQPALHLIPPTTLTKLRNLGPGRVKDMHMLGHSRQIISHIPVAAPPQICSRFNDAIHAATMTNTAKFSVLAVLPTDGMEAAKELARCVSKYRFVGGVIGLNRGLRINGEGWEELWGLAERLRIPIMFREMWPLAFEIVDYQHHLPYSALGPILTQLHTSHTSSPLPLVRLYLSSVFDHYPSLRLVLAHPGSLPSLVPRIESLINSIPATDKPKRSFLDVWQHNIYLTTADAQDMSSLRALLEQIPVDRVLYASNYPFEERGNELMNELRESEFLTNIEWERVAWVNAETLFNLKEAGTKEARQLTTIPSSRS = High
• 72 (protein, Cupriavidus necator) MADCPCCVSPKRRRLLGSVSAIAAGMMAGLPALAAQPSTAAAGTGKPLSIDIHAHYYSESFLGLLGGEGKQFGGHFFRNDDSFTFQTPAGGLGPLPMKFIDVEQRVRDMDNSGVDVQAISLSVPMVYWADRTLNAKLARAWNTAASDVHRKHPTRFVVLATLPMLNANDAIDELEFAAGLPGVRGIYMGTNINNRDLDDPLFSPIFKRIEQLNLPIFLHPQQTVGGARLADFYLSNLLGNPFDTAIAASHLILGGVLDKYPALHFSLPHAGGALPILVGRIDAGWSMRSETKRVAQKPSSYLRRFSYDTISHSGPTLDFLIRNIGADRLVLGSDYCFDMGYEQPVRFLDRLALPDDQKRMVVGGNAARLLNL = Low
• 33 (protein, listed as Rhizobium leguminosarum) MAQGKIALEEHFAIPETLQDSAGFVPGDYWKELSARLLDIQEKRLRLMDAHGIEKMILSLNAPAVQAIPDRAKALEISRRANDFLAEQCVKNPNRFLGFAALPLQDPDAATQELQRCVTTMGFVGALVNGFSQEGDGTTPLYYDLPQYRSFWAEVEKLNVPFYLHPRNPLPQDSRIYAGHSWLMGPTWAFAQETAVHALRLMGSGLFDEHPALRIIVGHMGEGLPYMMWRIDNRNAWVKVEKSYPAKRPIADYFNENFYITTSGNFRTQSLIDAMLEIGADRILFSADWPFENIDHAANWFDSATISEADRLKIGRTNAVSLFKLDR = High
• 44 (protein, listed as Mycobacterium avium) MARIITVEEHFQHPEVSARVAELTGPAVEGLAEFGNAFSLDPDSTARLGGNRLAHMDQVGIDVQVVSHGNGSPGTLQHPEAVELCRRVNNDLAAQIAENPDRFRGFATLPLYDPAAAAEELRRCVGDLGFVGALIAGSYDGLFLDDERFDPILTAAEAVDFPIYVHPGLPEAPVSQRYYAGSWPASVHMMFSGPAFGWHAEAGIHIVRLILSGALDRHPTLKLLSGHWGELAAFYLERLDETLGLLPTGLERAPSDYYRQQVWITPSGMYNQNQLNFMTAELGAQRIIYSEDFPYVVRDNVSTFLEQAGLSEADTHAIAHTNAEALLRI = High
